test method notes: soluble on expression in E. coli; label from the status in PepcDB or PDB records

[
  {
    "residue codes": "MSQAELFTISDLAREFDVTLRTIRFYEEQGLIEPQRDGRQRLFTRRDRGRLKLILRGKRIGLSLAEIREIIDMYQLARDEASQSQKLLDLLLARRRQLEAQRRDIDAVLDEIATLENHCRDVIDSQSSVA",
    "soluble on expression in E. coli": "not soluble"
  },
  {
    "residue codes": "MHPGIDSMSSNINCENNPFSFYGNPHKSVIIHGKEGTELLKEKGEDCKTFENSQQYFLWCCVQQQMYHYQLLSTAFASYGFEPPRIPGAFPHHIPPIFNGSMKCLRDREVFNQSGFLYVNVSPDTYQETRQEAPVEQRNQWSEKSKTTSKKSICKVLFECTNSSLLENAENRSIFSKQGSGSHVGENSKNPSEDSGQSGRLSQNATAEHNVLEKHLQEEYQMAKNTVNESFDSLKECSAASVIKGSYLLSQVVHIPEDAIEPEIPPDLQGPGGHVFLRMLSRSWRQYKRALEHNE",
    "soluble on expression in E. coli": "not soluble"
  },
  {
    "residue codes": "MAHHHHHHMRLHLPGRRDTRTASTGSSPVASLFLQKPIIFRKVAHGSASTILNVKRLELVLLETQSDQGKSEPDIQRLHWLTPHKLHQVHNDRITTATLQKNKVHSGYQFVLHIVQVSLEFLYRQKKAIILQLAERTLHERIFGGAKQLYHHQRAAGGGGK",
    "soluble on expression in E. coli": "not soluble"
  },
  {
    "residue codes": "MGSDKIHHHHHHMRNPDIGIDDLTALFIADTPLIDVRAPVEFTQGSLPGAVNLPILNDEERALVGTTYKQQGSEAAIKLGYEMVSGSVKQNRLQQWLDFIHQHPRAILYCFRGGKRSQITQQWLRDTGIDSPLITGGYKRARQFLISTIDRFSEHRKLLVITGPTGSGKTRLIHDISNSHPVLDIEALARHRGSAFGGMSVPQPSQIDFENHLAVNLLKLEQNNLSEPVIVEDESRHTGKVYLPDSFFHHLRNSEIIWVDEPLATRVDNIFEDYILTTPIGQAQRIRQAIPPLASTVETREILRQQARQLFDKYAGALQAISKKLGGDRFQEVSEDLENARSDFENKNEIQSNKIWIEKLVRYYYDPLYLGSLQRRRVNPCFKGSGQAVMDYLQARK",
    "soluble on expression in E. coli": "not soluble"
  }
]
